- target-desc: human KDR (VEGFR2) on cells (human, UniProt P35968 20-1356)
- Sequence (P35968 20-1356): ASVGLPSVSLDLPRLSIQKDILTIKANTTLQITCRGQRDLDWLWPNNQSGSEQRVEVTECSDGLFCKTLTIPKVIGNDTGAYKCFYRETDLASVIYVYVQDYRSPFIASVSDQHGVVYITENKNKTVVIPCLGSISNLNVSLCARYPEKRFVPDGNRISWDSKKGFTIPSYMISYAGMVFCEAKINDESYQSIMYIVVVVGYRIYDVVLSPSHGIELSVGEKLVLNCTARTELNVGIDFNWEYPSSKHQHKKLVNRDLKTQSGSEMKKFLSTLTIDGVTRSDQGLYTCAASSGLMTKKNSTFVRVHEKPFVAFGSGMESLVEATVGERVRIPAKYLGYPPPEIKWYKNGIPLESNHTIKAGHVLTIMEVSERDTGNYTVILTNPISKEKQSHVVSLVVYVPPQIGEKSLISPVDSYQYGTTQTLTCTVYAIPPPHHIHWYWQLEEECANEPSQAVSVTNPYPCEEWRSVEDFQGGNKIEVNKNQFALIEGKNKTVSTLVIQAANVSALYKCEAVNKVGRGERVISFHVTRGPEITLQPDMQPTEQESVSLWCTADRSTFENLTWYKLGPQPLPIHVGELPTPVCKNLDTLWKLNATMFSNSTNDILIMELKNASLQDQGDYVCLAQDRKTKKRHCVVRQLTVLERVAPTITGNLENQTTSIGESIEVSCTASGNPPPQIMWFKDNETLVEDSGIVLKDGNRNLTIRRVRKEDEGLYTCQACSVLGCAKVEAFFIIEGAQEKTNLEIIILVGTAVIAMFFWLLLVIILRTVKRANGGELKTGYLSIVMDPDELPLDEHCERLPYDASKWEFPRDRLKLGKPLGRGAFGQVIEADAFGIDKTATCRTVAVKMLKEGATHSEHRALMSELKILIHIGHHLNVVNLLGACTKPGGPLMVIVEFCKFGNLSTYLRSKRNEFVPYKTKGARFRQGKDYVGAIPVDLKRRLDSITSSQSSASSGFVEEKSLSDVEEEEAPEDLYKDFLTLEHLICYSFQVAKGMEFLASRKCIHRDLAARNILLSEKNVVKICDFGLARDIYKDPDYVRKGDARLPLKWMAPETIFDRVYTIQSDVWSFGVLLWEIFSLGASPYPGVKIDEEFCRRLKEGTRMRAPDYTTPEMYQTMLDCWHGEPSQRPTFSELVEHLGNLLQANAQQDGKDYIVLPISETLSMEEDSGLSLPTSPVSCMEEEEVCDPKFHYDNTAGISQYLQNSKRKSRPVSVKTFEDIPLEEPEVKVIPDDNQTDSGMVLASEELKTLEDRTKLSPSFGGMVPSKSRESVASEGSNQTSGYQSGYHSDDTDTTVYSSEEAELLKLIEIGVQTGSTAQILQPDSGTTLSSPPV
- protocol-details: cell-based or functional assay
observation-type: HUVEC survival (n = 1) 1:10 dilution of supernatant (RLU)

| binder | experimental-value |
| --- | --- |
| anti-KDR monoclonal antibody 33D5 (antibody, V domains shown, Fully human mAb from XenoMouse (IgG2 or IgG4 strain); hybridoma supernatant) VH: QVQLVQSGAEVKKPGASVKVSCKASGYTFGSYDINWVRQATGQGLEWMGWMNPNSGNTGYAQKFQGRVTLTRNTSIRTVYMELSSLRSEDTAVYYCARGGYSNLGWFDPWGQGSLVTVSS VL: DIQMTQSPSSVSVSVGDRVTITCRASQGISSWLAWYQQKPGKAPKLLIYAASSLQSGVPSRFSGSGSGTDFTLTISSLQPEDFATYYCQQANSFPFTFGPGTKVDIK | 43400 RLU |
| anti-KDR monoclonal antibody 33B1 (antibody, V domains shown, Fully human mAb from XenoMouse (IgG2 or IgG4 strain); hybridoma supernatant) VH: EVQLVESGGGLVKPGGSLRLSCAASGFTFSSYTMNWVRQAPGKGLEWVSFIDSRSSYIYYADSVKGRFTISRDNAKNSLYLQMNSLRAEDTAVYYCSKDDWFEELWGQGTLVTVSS VL: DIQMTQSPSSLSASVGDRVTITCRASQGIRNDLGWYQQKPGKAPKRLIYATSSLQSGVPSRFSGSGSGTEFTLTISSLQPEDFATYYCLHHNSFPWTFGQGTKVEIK | 19400 RLU |

Query binder follows.
Form field: reported HUVEC survival (n = 1) 1:10 dilution of supernatant (RLU) of anti-KDR monoclonal antibody 1G6 (antibody, V domains shown, Fully human mAb from XenoMouse (IgG2 or IgG4 strain); tested here as hybridoma supernatant) VH: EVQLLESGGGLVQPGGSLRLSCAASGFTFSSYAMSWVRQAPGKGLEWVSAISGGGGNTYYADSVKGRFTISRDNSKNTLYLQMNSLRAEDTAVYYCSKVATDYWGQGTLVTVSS VL: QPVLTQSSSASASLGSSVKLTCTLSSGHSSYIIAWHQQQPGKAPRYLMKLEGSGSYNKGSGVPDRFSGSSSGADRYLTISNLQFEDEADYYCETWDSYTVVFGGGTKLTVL
47800 RLU
